Experiment: Inhibition of NHE1-mediated rat platelet swelling
Endpoint Label: IC50 (nM)

CNS(=O)(=O)c1cc(C(=O)NC(=N)N)ccc1CN1CCN(Cc2ccc(OC)c(OC)c2OC)CC1
15

[I] COc1ccc(CN2CCN(Cc3ccc(C(=O)NC(=N)N)cc3[N+](=O)[O-])CC2)c(OC)c1OC
[II] COc1ccc(CN2CCN(Cc3ccccc3C(=O)NC(=N)N)CC2)c(OC)c1OC
[III] COc1ccc(CN2CCN(Cc3ccc(C(=O)NC(=N)N)cc3Br)CC2)c(OC)c1OC
[IV] CCCNS(=O)(=O)c1cc(C(=O)NC(=N)N)ccc1CN1CCN(Cc2ccc(OC)c(OC)c2OC)CC1
[V] COc1ccc(CN2CCN(C(C)c3ccc(C(=O)NC(=N)N)cc3[N+](=O)[O-])CC2)c(OC)c1OC (stereo unspecified)
Falling order of IC50, please. Enter labels, ranked according to the request.
IV, III, V, II, I

###

Assay: Inhibition of NHE1-mediated rat platelet swelling
Endpoint Label: IC50 (nM)

COc1ccc(CN2CCN(Cc3cc(C(=O)NC(=N)N)ccc3[N+](=O)[O-])CC2)c(OC)c1OC
14.2

[A] COc1ccc(CN2CCN(Cc3cccc(C(=O)NC(=N)N)c3)CC2)c(OC)c1OC
[B] COc1ccc(CN2CCN(Cc3ccc(C(=O)NC(=N)N)cc3S(N)(=O)=O)CC2)c(OC)c1OC
// which entry has the larger IC50 value, A or B ? Lab note: record the label of whichever item you select.
A
